System: MS2 coat protein
Assay: apparent KD of MS2 coat protein; designed switch direction (-1 OFF switch, 1 ON switch): -1; higher = weaker reporter binding
Settings: input ligand: microRNA oligo, concentration not stated
READOUT KIND: apparent KD of MS2 coat protein (nM)
Just the number please, in nM, no unit attached.

[in] Quick one: apparent KD of MS2 coat protein for CAUGUCCAACGAGGAUAUGGGAAAGGAAGUGUACCAGAAGGCGUACGGACAUGAGGAUCACCCAUGUCGCGCGGUGCGAUGUGG [MOD2 Nando EXNG 1.1] (Eterna round: R96, puzzle: Exclusion NG 1) ?
[out] 39.1

[in] Repeat for the following sequence: AGCGAAGAGACAGGAUAUGAGAAUAGAUAGAGCUCAGAAGGGUCACAUGAGGAUCACCCAUGUAAAGUCUUGAGGCUGCGUGGU [Prohibition 10 - Jieux - Exclusion NG 1] (Eterna round: R96, puzzle: Exclusion NG 1)
[out] 41.1

[in] ACGGUGGUCCGAGAACAUGAGGAUCACCCAUGUGACAAAACCAAGGAUAUAGACGGACCGCCCGACUAGAAGGUGGAAAGAAAA [Aronlema] (Eterna round: R96, puzzle: Exclusion NG 3) , same question.
[out] 41.1

====

System: K4 kissing-loop RNA reporter;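 note: bound reporter read as fluorescence of individual clusters on recovered sequencing chips by microscopy, with normalized cluster intensities fitted with a binding model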
Test: apparent KD of K4 kissing-loop reporter; higher = weaker reporter binding
Conditions: Eterna round: R107; input ligand: tryptophan 2.4 mM
READOUT KIND: apparent KD of K4 kissing-loop reporter (nM)
Kindly answer with a numeric value in nM, unit omitted.

[in] Which apparent KD of K4 kissing-loop reporter is listed for UCUGUUGUAUAUGAUACCAGCAGUGAGAGACAGGAAGUAUAGUGAUGUUAUAUGAGAGAAUGCCCUUGGCAGCGUGUGCGGGUGG [SSTheophylB.X] ?
[out] 99.1

[in] Field entry: GAUUCAGUGAUGUUGGAAGGCGAGCGGGAUACCAGCCAAGACUCAGGCCCUUGGCAGCCCACAUAUCCCACGUAGAUAGUAGCUC [Same State - Theophylline A (Freestyle 13)]
[out] 142

[in] Another sequence: CUGACGCUGAUACGGUGGCCGAUGGUCGUGCGAGGACCGGUACGGCCGCCACUCGCAUGAGUGAUGUUCAUGUGUCGUCGUCGUC [#06 K4 Tryptophan A Exclusion]
[out] 142

[in] Now give it for GGUAGCAUGGCGGCCGCCACUUCAUAUGGAGUGAUGUUCCAGCAUCUUAUAAGACUGAGGUGAGGAAGGACCGGGCCAUGCUACC too.
[out] 189

[in] Repeat with AGACUUCACCGAAGGAGCGACGUGGCCUAGUGAUGUUAGGUACGAGAGAAAUCUCGUAUACGUCAGGUAGGUCGCGGUGAAGUCA [Omei KL Arginine B SS C v8]
[out] 830

[in] Same question for GCGGGCCCUGGAGGAUAUGAGUCGAGUGAUGUUCGGCGGUCCAUGCCGAUGCGGCGUUAUGCCCUUUUAGAAGGCCAGGGUCCGC [#2 Exclusion - FMN B Attempt #8 (HarryS)] please.
[out] 289

[in] Moving on to the next sequence: UGUCAUUGGUCGGCCGCCACUCCAUAAAGAGUGAUGUUCUGAAAGACGGAUCGAAAGAUCUGUCGGAGGACCGGGACCGAUGACU [FiskerMod 3 - Jieux - Same State - Tryptophan B]
[out] 237

[in] And what about the sequence UGGACCUGACUCGAUAAGAGUCAAUGAGAUACCAGCCACGAAAGUGGCCCUUGGCAGCUCUGCCAGUGAUGUUGGUCAAGGUCCU [#SwitchBubble 5 #StaticStem] ?
[out] 1100

[in] Request: UGGAUAUAGUGAUGUUAUAUAGAGAUGGAUACCAGCGAAGAGAAUUGCCCUUGGCAGCCGAAAGCAGUAUCAUUAGAGAAGAAUG [#19 K4 Theophylline A Exclusion]
[out] 255

[in] Please give the result for CAAAACGAGUGAUGUUCGGACAACAACGUUAAGGAUAUACUUCUCUGUAGAAGGUAACAGUAUUUAUAUUUCAUCAACGAAAAUG [theeternabot_exclusion_KL_FMN_A_12] too.
[out] 181

[in] Try this sequence next: GGUGACAGCCAGGAGUGAUGUAUAGAAUAGCGAGGACCGGUACGGCCGCCACUCGUGAAGAGAAAGGAGUGAUGUUCCGUAAUGG [Kazoo C2]
[out] 57

[in] What about this sequence? AAGACUUGCAUCGAUACCAGCCCAGUGAUGUUGGGCUGCUCUCCAUGGGUGCCAGACACGGGCCCUUGGCAGCGAGGUAAGGCCC [Soveri]
[out] 106

====

Test system: MS2 coat protein
Experiment: apparent KD of MS2 coat protein, switch ON state; designed switch direction (-1 OFF switch, 1 ON switch): -1; higher = weaker reporter binding
Details: FMN input: 0 or 200 uM; Eterna round: R93 (includes R88 designs)
Returns one of Condition met or Condition not met; Condition met when apparent KD of MS2 coat protein is >= 50 nM.

[in] Test whether the sequence UCCGGACAUGAGGAUCACCCAUGUGAGGAUAUAUAAAGUGGGACUGGAAACAGUCCCAAUAGAAGGCACAUGAA [Celaar] records apparent KD of MS2 coat protein of 50 nM or higher.
[out] Condition not met

[in] What about AGCAAGUGAGGAUAUCUGGAUAGGAAAAAGAAAACCUAUCCAGAGAAGGCACAUGAGGAUCACCCAUGUAAAAA [JL cataway mod 7] ?
[out] Condition not met

[in] Please answer likewise for AAAGAUGGAGGAUAUACAUGAGGAUCACCCAUGUGGAAUCUAAAAUGGGAAAAAGAAAGUAGAAGGCCAUAAAA [Ex 3 May 40]
[out] Condition not met

[in] Try the sequence AACAGUACAGGAUAUACAUGAGGAUCACCCAUGUAAAGGGAAUAAAACAAAAAUAAAUGUAGAAGGGUACUGGA [Moding Maslow revisited (73) 21]
[out] Condition met

[in] Request: AGAAACUGAGGAUAUACUUUGGGAAAAGAAAAGAUGAUGUUACAUGAGGAUCACCCAUGUAGAAGGCAGAAAGA [Mat - Exclusion 2 - Mod - D152]
[out] Condition not met

[in] Again, but for AACAGUACAGGAUAUACAUGAGGAUCACCCAUGUAAAAAUAAAAAGGGAACUCAAAAAGUAGAAGGGUACUGGA [Moding Maslow revisited (73) 14]
[out] Condition met

[in] Try this sequence too: ACCAGACAUGAGGAUCACCCAUGUCAGGAUAUAGUAUGAAAAAAAAAAAAAAAAAAUACUAGAAGGGACAAGGG [Design 14: Super Stable Short Helix 5]
[out] Condition not met

[in] Follow-up entry: CUCAAGUGAGGAUAUAUAAGAAAAGAAGAGAAAGAAAAGAAAUAGAAGGCACAUGAGGAUCACCCAUGUAAGAA [EteRNA is fun!]
[out] Condition not met

[in] Same lookup for AAGAAUGAAGGAUAUACAUGAGGAUCACCCAUGUAAGAGAAAGAGGGAAAAGAGAAAAGUAGAAGGUCAAAGAA [Ruby 72] , please.
[out] Condition not met

[in] Now give it for AACAGGACAGGAUAUACAUGAGGAUCACCCAUGUGAGAAUUAAGUAGAUUACCACAGAGUAGAAGGGUCCUGGA [Ruby 96] too.
[out] Condition not met

[in] Continue with CUCAUGUGAGGAUAUGUACAGAAAAAAAUGGGUGAAACUGUACAGAAGGCACAUGAGGAUCACCCAUGUGCCAA [EX4 376: S S Pseudoknot 1]
[out] Condition met

[in] What do you get for AAAAAACAUGAGGAUCACCCAUGUUAGGAUAUGCUAUGGAAAAUAAAAAUAAAACAUAGCAGAAGGGACAAAAA [Denovo 1] ?
[out] Condition not met

[in] // same read-out, input: GGUUGGCGAGGAUAUACAUGAGGAUCACCCAUGUGAGAGAAAAAAGUGAGAAACAAAAGUAGAAGGCGCUGACG [salish99-ex3-26]
[out] Condition met

[in] Also, CUCAAGUAAGGAUAUUGAAGAAAAGAAGAGAAAGAAAAGAACAAGAAGGUACAUGAGGAUCACCCAUGUAAGAA [EteRNA is fun!] please.
[out] Condition not met

[in] Field entry: AAAAAACAUGAGGAUCACCCAUGUGAGGAUAUGAUGAAAGAUUGAAAAAGGUUGAAAGUCAGAAGGUAUGUGAA [Exclusion 1.3]
[out] Condition not met

[in] # repeat for AAUAAGUGAGGAUAUGGAAAUAGUAGAUAAGAUACCCUAAACCAGAAGGCACAUGAGGAUCACCCAUGUAAAUA [JR_Exc004_Sub004]
[out] Condition not met

[in] Lookup AAAUGACUAGGAUAUACAUGAGGAUCACCCAUGUGUUAAAAUAAAUACACAAAAGAAAGUAGAAGGAGUCAAAG [Mat - Exclusion 3 - Mayanna mod - D125]
[out] Condition not met

[in] Please give the result for ACGUUGAGAGGAUAUACGAACAUGUCAAAAGACGUGAAGGGACAUGAGGAUCACCCAUGUAGAAGGCUCAACGA [Mat - Exclusion 2 - JL mod - D9] too.
[out] Condition not met

[in] Input CUCUUGUGAGGAUAUCUAAGAAAAGAAAAGAAAGAAAAGAAAGAGAAGGCACAUGAGGAUCACCCAUGUAAGAA [EteRNA is fun!]
[out] Condition not met

[in] Also AAGAAUCGAGGAUAUACAUGAGGAUCACCCAUGUAAAAGAAAGAGGGAAAAGAGAAAAGUAGAAGGCGAAAGAA [Ptolemy Memphitis] , if possible.
[out] Condition not met

[in] Cool, now AUAAAGUGAGGAUAUGCUAAUAAAUAAAUAGACAAAUAAAUGCAGAAGGCACAUGAGGAUCACCCAUGUAAGAA [Ex 4 Tesla 3]
[out] Condition not met

[in] Now consider AAGGGACAUGAGGAUCACCCAUGUCAGGAUAUGCGAAAAAAAAAAAUAAAAAAAAAAAGCAGAAGGGACACCAA [Mat - Exclusion 1 - Eli mod - D58] and answer again.
[out] Condition met
